target: PI3Kα (Homo sapiens (Human), UniProt P42336); test: PI3Kα enzyme activity inhibition IC50 evaluation assay; type: biochemical; conditions: ratio PI3Kα vs PI3Kδ
Sequence (P42336 whole entry): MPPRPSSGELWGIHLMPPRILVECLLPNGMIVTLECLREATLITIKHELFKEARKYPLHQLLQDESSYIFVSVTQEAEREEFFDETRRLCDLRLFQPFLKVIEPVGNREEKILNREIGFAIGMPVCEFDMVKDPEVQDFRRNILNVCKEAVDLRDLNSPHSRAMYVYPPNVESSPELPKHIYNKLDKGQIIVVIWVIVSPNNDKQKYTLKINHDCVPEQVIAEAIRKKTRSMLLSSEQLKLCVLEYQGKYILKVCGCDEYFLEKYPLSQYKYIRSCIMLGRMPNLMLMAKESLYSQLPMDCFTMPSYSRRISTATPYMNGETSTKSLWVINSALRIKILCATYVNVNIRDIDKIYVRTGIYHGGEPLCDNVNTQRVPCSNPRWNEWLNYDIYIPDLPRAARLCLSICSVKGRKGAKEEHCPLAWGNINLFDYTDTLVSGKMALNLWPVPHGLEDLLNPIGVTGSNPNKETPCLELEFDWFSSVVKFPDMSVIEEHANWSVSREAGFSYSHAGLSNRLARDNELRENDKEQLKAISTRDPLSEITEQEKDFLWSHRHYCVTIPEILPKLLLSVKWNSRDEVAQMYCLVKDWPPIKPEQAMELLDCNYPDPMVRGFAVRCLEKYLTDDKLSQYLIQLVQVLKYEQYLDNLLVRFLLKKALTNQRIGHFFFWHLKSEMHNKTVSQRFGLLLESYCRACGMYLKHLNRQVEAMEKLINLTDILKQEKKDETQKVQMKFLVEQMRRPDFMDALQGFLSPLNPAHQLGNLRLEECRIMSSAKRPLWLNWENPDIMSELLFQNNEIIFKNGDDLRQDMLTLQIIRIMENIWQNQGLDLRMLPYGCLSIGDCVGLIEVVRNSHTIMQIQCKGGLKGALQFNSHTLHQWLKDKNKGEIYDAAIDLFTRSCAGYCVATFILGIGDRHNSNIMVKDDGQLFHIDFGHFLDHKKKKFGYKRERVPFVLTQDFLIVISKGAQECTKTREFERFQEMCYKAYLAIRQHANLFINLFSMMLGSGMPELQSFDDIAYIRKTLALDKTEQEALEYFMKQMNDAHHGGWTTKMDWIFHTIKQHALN
Sequence (P27986 whole entry partner): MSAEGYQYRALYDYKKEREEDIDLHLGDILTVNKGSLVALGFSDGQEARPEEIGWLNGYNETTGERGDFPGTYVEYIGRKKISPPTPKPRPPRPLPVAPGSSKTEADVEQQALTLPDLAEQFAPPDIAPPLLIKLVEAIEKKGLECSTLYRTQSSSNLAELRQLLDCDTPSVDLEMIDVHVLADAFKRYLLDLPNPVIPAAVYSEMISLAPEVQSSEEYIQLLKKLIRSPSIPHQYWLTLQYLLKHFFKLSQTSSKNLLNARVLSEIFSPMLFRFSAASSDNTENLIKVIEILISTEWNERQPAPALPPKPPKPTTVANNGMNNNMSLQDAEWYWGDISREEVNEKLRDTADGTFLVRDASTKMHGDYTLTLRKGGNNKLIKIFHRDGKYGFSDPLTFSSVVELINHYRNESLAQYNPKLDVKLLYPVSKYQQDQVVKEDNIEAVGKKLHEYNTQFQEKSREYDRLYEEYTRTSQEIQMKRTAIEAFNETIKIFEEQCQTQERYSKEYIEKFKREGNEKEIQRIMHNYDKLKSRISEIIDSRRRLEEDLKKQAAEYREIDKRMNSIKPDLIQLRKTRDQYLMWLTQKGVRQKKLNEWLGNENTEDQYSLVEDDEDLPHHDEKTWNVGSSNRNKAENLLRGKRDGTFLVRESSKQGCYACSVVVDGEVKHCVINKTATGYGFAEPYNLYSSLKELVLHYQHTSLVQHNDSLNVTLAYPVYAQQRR
Reported Property: α/δ selectivity
Output spec: single numeric token, no unit.

**Query** Please give the measured α/δ selectivity for this compound: COc1ncc(-c2nc(N3CCOCC3)nc3c(CN4CCN(C5CCN(C)CC5)CC4)csc23)cc1NS(C)(=O)=O [Compound 39]
**Result** 159

**Query** Please give the measured α/δ selectivity for this compound: C=C1CCN(Cc2c(C)sc3c(-c4cnc(OC)c(NS(C)(=O)=O)c4)nc(N4CCOCC4)nc23)CC1 [Compound 136]
**Result** 268

**Query** Please give the measured α/δ selectivity for this compound: COc1ncc(-c2nc(N3CCOCC3)nc3c(CN4CCC5(CC4)OCCO5)c(C)sc23)cc1NS(C)(=O)=O [Compound 104]
**Result** 159

**Query** Please give the measured α/δ selectivity for this compound: COc1ncc(-c2nc(N3CCOCC3)nc3c(CN4CCC(N(C)C)CC4)c(C)sc23)cc1NS(C)(=O)=O [Compound 93]
**Result** 82

**Query** Please give the measured α/δ selectivity for this compound: COc1ncc(-c2nc(N3CCOCC3)nc3c(CN4CCOCC4)c(C)sc23)cc1NS(C)(=O)=O [Compound 98]
**Result** 30

**Query** Please give the measured α/δ selectivity for this compound: COc1ncc(-c2nc(N3CCOCC3)nc3c(CN4CCC(N5CCCCC5)CC4)c(C)sc23)cc1NS(C)(=O)=O [Compound 147]
**Result** 225

**Query** Please give the measured α/δ selectivity for this compound: CC(C)(O)C1CCN(Cc2csc3c(-c4ccnc5[nH]ccc45)nc(N4CCOCC4)nc23)CC1 [Compound 17]
**Result** 74

**Query** Please give the measured α/δ selectivity for this compound: COc1ncc(-c2nc(N3CCOCC3)nc3c(CN4CCC(N5CCC[C@H]5C)CC4)c(C)sc23)cc1NS(C)(=O)=O [Compound 125]
**Result** 239

**Query** Please give the measured α/δ selectivity for this compound: CC(C)C(=O)N1CCN(Cc2csc3c(-c4cncc(NS(C)(=O)=O)c4)nc(N4CCOCC4)nc23)CC1 [Compound 31]
**Result** 10

**Query** Please give the measured α/δ selectivity for this compound: COc1ncc(-c2nc(N3CCOCC3)nc3c(CN4CC[C@@H](N5CCC[C@@H]5C)C4)c(C)sc23)cc1NS(C)(=O)=O [Compound 134]
**Result** 188

**Query** Please give the measured α/δ selectivity for this compound: CCNC(=O)C1CCN(Cc2csc3c(-c4cnc(OC)c(NS(C)(=O)=O)c4)nc(N4CCOCC4)nc23)CC1 [Compound 76]
**Result** 60

**Query** Please give the measured α/δ selectivity for this compound: COc1ncc(-c2nc(N3CCOCC3)nc3c(CN4CCN(C(=O)C(F)(F)F)CC4)c(C)sc23)cc1NS(C)(=O)=O [Compound 90]
**Result** 69

**Query** Please give the measured α/δ selectivity for this compound: Cc1oc2ccccc2c1-c1nc(N2CCOCC2)nc2c(CN3CCN(C(=O)C(C)C)CC3)csc12 [Compound 16]
**Result** 18

====

target: PI3Kα (Homo sapiens (Human)); assay: PI3Kα enzyme activity inhibition IC50 evaluation assay; type: biochemical; details: ratio PI3Kα vs PI3Kδ
Provide the reported α/δ selectivity of each item.
Output spec: single numeric token, no unit.

**Query** Please give the measured α/δ selectivity for this compound: COc1ncc(-c2nc(N3CCOCC3)nc3c(CN4CCN(CC(F)(F)F)CC4)c(C)sc23)cc1NS(C)(=O)=O [Compound 87]
**Result** 204

**Query** Please give the measured α/δ selectivity for this compound: CCN(C)C1CCN(Cc2csc3c(-c4cnc(OC)c(NS(C)(=O)=O)c4)nc(N4CCOCC4)nc23)CC1 [Compound 56]
**Result** 293

**Query** Please give the measured α/δ selectivity for this compound: COC(=O)C1CCN(Cc2c(C)sc3c(-c4cnc(OC)c(NS(C)(=O)=O)c4)nc(N4CCOCC4)nc23)CC1 [Compound 111]
**Result** 301

**Query** Please give the measured α/δ selectivity for this compound: O=C(CO)N1CCN(Cc2csc3c(-c4cccc5[nH]ccc45)nc(N4CCOCC4)nc23)CC1 [Compound 12]
**Result** 133

**Query** Please give the measured α/δ selectivity for this compound: COc1ncc(-c2nc(N3CCOCC3)nc3c(CN4CC5CC5C4)c(C)sc23)cc1NS(C)(=O)=O (stereo not shown) [Compound 141]
**Result** 120

**Query** Please give the measured α/δ selectivity for this compound: COc1ncc(-c2nc(N3CCOCC3)nc3c(CN4CCC(N5CCC[C@@H]5C)CC4)c(C)sc23)cc1NS(C)(=O)=O [Compound 127]
**Result** 38

**Query** Please give the measured α/δ selectivity for this compound: Cc1sc2c(-c3cnc(Cl)c(NS(C)(=O)=O)c3)nc(N3CCOCC3)nc2c1CN1CCC(C(C)(C)O)CC1 [Compound 120]
**Result** 24
